assay-explanation: Water solubility (Bookser's method)
Type: physicochemical
condition-info: thermodynamic from solid, deionized water, saturated solution
measured-attribute: solubility at 1 h (mg/mL)
One number for each entry, in mg/mL.

Some entries whose results are on file:
INSERT INTO measurements (compound_structure_string, measured_attribute, quantitative_readout) VALUES
  ('Cc1ccc(C(=O)Nc2ccc(S(=O)(=O)O)c3cccc(S(=O)(=O)O)c23)cc1NC(=O)c1cccc(NC(=O)Nc2cccc(C(=O)Nc3cc(C(=O)Nc4ccc(S(=O)(=O)O)c5cccc(S(=O)(=O)O)c45)ccc3C)c2)c1', 'solubility at 1 h', 114),
  ('Cc1ccc(C(=O)Nc2ccc(S(=O)(=O)O)c3cccc(S(=O)(=O)O)c23)cc1NC(=O)c1cccc(N)c1', 'solubility at 1 h', 249);

Turning now to a further compound:
Problem: What does the data say about its solubility at 1 h? Entry: `Cc1ccc(C(=O)Nc2ccc(S(=O)(=O)O)c3cccc(S(=O)(=O)O)c23)cc1[N+](=O)[O-]`
Solution: 260

###

assay-explanation: Water solubility (Bookser's method)
Type: physicochemical
condition-info: thermodynamic from solid, deionized water, saturated solution
measured-attribute: solubility at 1 h

INSERT INTO measurements (compound, measured_attribute, result) VALUES
  ('Cc1ccc(C(=O)Nc2ccc(S(=O)(=O)O)c3cc(S(=O)(=O)O)cc(S(=O)(=O)O)c23)cc1NC(=O)c1cccc(NC(=O)Nc2cccc(C(=O)Nc3cc(C(=O)Nc4ccc(S(=O)(=O)O)c5cc(S(=O)(=O)O)cc(S(=O)(=O)O)c45)ccc3C)c2)c1 [Suramin (9), Suramin]', 'solubility at 1 h', '138 mg/mL');

Dear colleague, could you please provide solubility at 1 h for the compounds listed below?
1. Cc1ccc(C(=O)Nc2ccc(S(=O)(=O)O)c3cccc(S(=O)(=O)O)c23)cc1N [Compound 4]
2. Cc1ccc(C(=O)Nc2ccc(S(=O)(=O)O)c3cccc(S(=O)(=O)O)c23)cc1NC(=O)c1cccc([N+](=O)[O-])c1 [Compound 6]

Solution:
1. 339 mg/mL
2. 179 mg/mL

###

study-system: hNV-RdRp (Norovirus GII (human norovirus; Norwalk-like virus))
assay-explanation: In-vitro RdRp inhibition assay (PicoGreen fluorescence, poly(C)/oligoG12)
Type: biochemical
condition-info: poly(C) template, G12 primer, GTP 100 μM; read-out: IC50 hNVRdRp
Field 'label' (enum: 1 / 0). Set to 1 when IC50 is strictly under 1 µM; else 0.

Please review the entries below; each comes with its answer.
INSERT INTO measurements (compound, discrete_label) VALUES
  ('Cc1ccc(C(=O)Nc2ccc(S(=O)(=O)O)c3cccc(S(=O)(=O)O)c23)cc1NC(=O)c1cccc(N)c1 [Compound 7]', 0),
  ('Cc1ccc(C(=O)Nc2ccc(S(=O)(=O)O)c3cccc(S(=O)(=O)O)c23)cc1NC(=O)c1cccc(NC(=O)Nc2cccc(C(=O)Nc3cc(C(=O)Nc4ccc(S(=O)(=O)O)c5cccc(S(=O)(=O)O)c45)ccc3C)c2)c1 [Compound 8]', 1),
  ('Cc1ccc(C(=O)Nc2ccc(S(=O)(=O)O)c3cccc(S(=O)(=O)O)c23)cc1[N+](=O)[O-] [Compound 3]', 0),
  ('Cc1ccc(C(=O)Nc2ccc(S(=O)(=O)O)c3cccc(S(=O)(=O)O)c23)cc1N [Compound 4]', 0);

Problem: A record lists Cc1ccc(C(=O)Nc2ccc(S(=O)(=O)O)c3cc(S(=O)(=O)O)cc(S(=O)(=O)O)c23)cc1NC(=O)c1cccc(NC(=O)Nc2cccc(C(=O)Nc3cc(C(=O)Nc4ccc(S(=O)(=O)O)c5cc(S(=O)(=O)O)cc(S(=O)(=O)O)c45)ccc3C)c2)c1 [Suramin (9), Suramin] . Is its IC50 below 1 µM?
Solution: 1

###

assay-explanation: n-Octanol/water partition coefficient (shake-flask method)
Type: physicochemical
condition-info: n-octanol / pH 7.4 phosphate buffer, 25 °C, average of three experiments, read-out: hydrophobicity log P
measured-attribute: logP at 1 h
Give bare numbers.

// each compound listed below needs its logP at 1 h
1. Cc1ccc(C(=O)Nc2ccc(S(=O)(=O)O)c3cccc(S(=O)(=O)O)c23)cc1NC(=O)c1cccc(NC(=O)Nc2cccc(C(=O)Nc3cc(C(=O)Nc4ccc(S(=O)(=O)O)c5cccc(S(=O)(=O)O)c45)ccc3C)c2)c1
2. Cc1ccc(C(=O)Nc2ccc(S(=O)(=O)O)c3cc(S(=O)(=O)O)cc(S(=O)(=O)O)c23)cc1NC(=O)c1cccc(NC(=O)Nc2cccc(C(=O)Nc3cc(C(=O)Nc4ccc(S(=O)(=O)O)c5cc(S(=O)(=O)O)cc(S(=O)(=O)O)c45)ccc3C)c2)c1
3. Cc1ccc(C(=O)Nc2ccc(S(=O)(=O)O)c3cccc(S(=O)(=O)O)c23)cc1NC(=O)c1cccc(N)c1
4. Cc1ccc(C(=O)Nc2ccc(S(=O)(=O)O)c3cccc(S(=O)(=O)O)c23)cc1[N+](=O)[O-]
5. Cc1ccc(C(=O)Nc2ccc(S(=O)(=O)O)c3cccc(S(=O)(=O)O)c23)cc1NC(=O)c1cccc([N+](=O)[O-])c1
6. Cc1ccc(C(=O)Nc2ccc(S(=O)(=O)O)c3cccc(S(=O)(=O)O)c23)cc1N

Solution:
1: -1.61; 2: -3.42; 3: -2.11; 4: -2.19; 5: -1.64; 6: -2.33

###

study-system: mNV-RdRp (Norovirus)
I'd appreciate it if you could supply IC50 values for the items below.
Numbers only, in nM.

INSERT INTO assay_data (molecule, quantitative_readout) VALUES
  ('Cc1ccc(C(=O)Nc2ccc(S(=O)(=O)O)c3cccc(S(=O)(=O)O)c23)cc1[N+](=O)[O-] [Compound 3]', 200),
  ('Cc1ccc(C(=O)Nc2ccc(S(=O)(=O)O)c3cccc(S(=O)(=O)O)c23)cc1NC(=O)c1cccc([N+](=O)[O-])c1 [Compound 6]', 115),
  ('Cc1ccc(C(=O)Nc2ccc(S(=O)(=O)O)c3cccc(S(=O)(=O)O)c23)cc1NC(=O)c1cccc(N)c1 [Compound 7]', 160);

Look up IC50 for the entries below, preserving their order.
1. Cc1ccc(C(=O)Nc2ccc(S(=O)(=O)O)c3cccc(S(=O)(=O)O)c23)cc1N [Compound 4]
2. Cc1ccc(C(=O)Nc2ccc(S(=O)(=O)O)c3cc(S(=O)(=O)O)cc(S(=O)(=O)O)c23)cc1NC(=O)c1cccc(NC(=O)Nc2cccc(C(=O)Nc3cc(C(=O)Nc4ccc(S(=O)(=O)O)c5cc(S(=O)(=O)O)cc(S(=O)(=O)O)c45)ccc3C)c2)c1 [Suramin (9), Suramin]

Solution:
160
70
